tested on: Trypanosoma brucei brucei; experiment: Antitrypanosomal activity against TbAt1-deficient bloodstraem form of Trypanosoma brucei brucei 427 (BS221) after 72 hrs by alamar blue assay; assay type: functional, organism-based
# maps each entry to its EC50
Answer format: numeric, nM implied, no suffix.

Solved cases (5 shown):
>>> endpoint_value("OCCCCCCCCCCCCCc1ccc[n+](CCCCCCCCCCCCCc2cccnc2)c1")
620
>>> endpoint_value("C[n+]1cccc(CCCCCCCCCCCCCO)c1")
2300
>>> endpoint_value("N=C(N)c1ccc(OCCCCCOc2ccc(C(=N)N)cc2)cc1")
3.2
>>> endpoint_value("c1cc2c[n+](c1)CCCCCCCCCCCCCc1ccc[n+](c1)CCCCCCCCCCCCCc1ccc[n+](c1)CCCCCCCCCCCCCc1ccc[n+](c1)CCCCCCCCCCCCC2")
660
>>> endpoint_value("C[n+]1cccc(CCCCCCCCCCCCCI)c1")
180

Here's the next entry for you.
I have this compound here, "COc1ccc(C[n+]2cccc(CCCCCCCCCCCCCI)c2)cc1" , and I need its recorded EC50. 480

---

system: Trypanosoma brucei brucei; assay: Antitrypanosomal activity against TbAt1-deficient bloodstraem form Trypanosoma brucei brucei B48 after 72 hrs by alamar blue assay; format: functional, organism-based; settings: B48, 72 h
Entries annotated with measured log10(EC50)
Answers are given as log10 of EC50 in nM.

Example results:
>>> endpoint_value("c1cc2c[n+](c1)CCCCCCCCCCCCCc1ccc[n+](c1)CCCCCCCCCCCCCc1ccc[n+](c1)CCCCCCCCCCCCCc1ccc[n+](c1)CCCCCCCCCCCCC2")
2.62
>>> endpoint_value("N=C(N)c1ccc(OCCCCCOc2ccc(C(=N)N)cc2)cc1")
1.82
>>> endpoint_value("OCCCCCCCCCCCCCc1ccc[n+](CCCCCCCCCCCCCc2cccnc2)c1")
2.48
>>> endpoint_value("C[n+]1cccc(CCCCCCCCCCCCCO)c1")
3.43

Sample "COc1ccc(C[n+]2cccc(CCCCCCCCCCCCCI)c2)cc1" — what was its log10(EC50)? 2.30

---

test system: Trypanosoma brucei brucei; test: Antitrypanosomal activity against TbAt1-deficient bloodstraem form of Trypanosoma brucei brucei 427 (BS221) after 72 hrs by alamar blue assay; assay type: functional, organism-based
Experimental endpoint: pEC50
By convention, pEC50 is the negative base-10 log of a molar concentration.

>>> endpoint_value("OCCCCCCCCCCCCCc1cccnc1")
4.47

Data request, read-out pEC50, for N=C(N)c1ccc(/N=N/Nc2ccc(C(=N)N)cc2)cc1 [DIMINAZEN ACETURATE] 5.10

Tell me the measured pEC50 of "CCCC[n+]1cccc(CCCCCCCCCCCCCO)c1" , please. 6.59

Fill in the blank: the reported pEC50 of "NCCS[As](SCCN)c1ccc(Nc2nc(N)nc(N)n2)cc1" is ____. 8.11

Origin of values: ChEMBL document CHEMBL2029225
